assay: NCI Yeast Anticancer Drug Screen. Data for the cln2 rad14 strain (AID 165);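 note: 0% = growth equal to vehicle treated cultures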; conditions: S. cerevisiae cln2 rad14 strain, at 50.0 µM (retest, dose inferred, filed as 5.0)
This is part of a sample that, as a whole, favours compounds with a hit. Of some 79,000 tested, about 15% had one in any assay. The source made the active and inactive calls. Cut-off read from the data, not from the text of the source: active = growth inhibition above about 70%; inactive = the rest.
Field 'call' accepts true (1) (active), false (0) (inactive)

Query: Recorded call for "CNC(=O)c1ccc(OC)cc1C1(O)c2ccccc2CCc2ccccc21" ?
Reply: false (0)

Query: Any idea what this test logged for "CCN(CC)c1ccc(SC#N)cc1" ?
Reply: true (1)

Query: Identify the outcome logged in this assay for the molecule shown: "O=c1cccccc1O"
Reply: false (0)

Query: Dear all, I need the recorded test outcome for "O=C(N=c1sc2ccccc2s1)N=c1sc2ccccc2s1" , thank you.
Reply: false (0)

Query: Could you check what this test reported for "Cc1cc(N2C(=O)CSC2=S)ccc1Cl" ?
Reply: false (0)

Query: Kindly provide the recorded test outcome for the following molecule: "CC1=C(C(=O)Nc2cc(O)ccc2O)C(c2cccc([N+](=O)[O-])c2)C(C(=O)Nc2cc(O)ccc2O)=C(C)N1"
Reply: false (0)

Query: For "C=C/C=C/CC=C" , which call appears in the assay record?
Reply: false (0)

Query: So what was the verdict on "O=C(/C=C\c1cc(Br)ccc1O)/C=C/c1cc(Br)ccc1O" in this test?
Reply: true (1)

Query: Recorded test outcome, item "CN(C)CCCNc1ccc2c(=O)n(CCN(C)C)c(=O)n3c4ccccc4c(=O)c1c23"
Reply: false (0)

Query: Lab log entry: O=C(NCCCCCCNC(=O)n1cc(F)c(=O)[nH]c1=O)NCCCOCCOCCOCCOCCOCCOCCOCCOCCOCCOCCOCCOCCOCCOCCOCCOCCOCCOCCOCCOCCOCCCNC(=O)C(O)C(O)C(O)C(O)CO (centres undefined) — outcome as called in the assay?
Reply: false (0)

Query: Assay outcome for "N#CSCCSC#N" : what was it?
Reply: true (1)

Query: Call for entry Cc1ccc2c(c1)C1(C)C=C(CN3CCN(C)CC3)C(=O)CC1O2 (centres undefined) :
Reply: true (1)

Query: Assay result, entry "CC[N+]1=C(/C=C\c2cc(C)c3cccnc3c2O)C(C)(C)c2ccccc21" — outcome?
Reply: true (1)

Query: Could you check what this test reported for "Cc1ccc(-n2cc(-c3ccc(Cl)cc3)c3c(N)ncnc32)cc1" ?
Reply: true (1)

Query: Per the records of this test, what outcome belongs to "CC(C)CNc1cc(Cl)nc(N)n1" ?
Reply: false (0)

Query: For Nc1ccc(C2CCC[C@H]2c2ccc(N)cc2)cc1 (some centres undefined) , what call appears in the results of this test?
Reply: false (0)

Query: Outcome? O=C1c2ccccc2NC(=O)C2C1C(c1ccccc1)CC2(O)c1ccccc1 (centres undefined)
Reply: false (0)

Query: Would you mind telling me which call this test gave "COC1=CC(=O)c2c(O)c3c(c(O)c2C1=O)C[C@](C)(O)C[C@@H]3O" ?
Reply: false (0)

---

assay: NCI Yeast Anticancer Drug Screen. Data for the sgs1 mgt1 strain (AID 161);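 note: 0% = growth of cultures given vehicle only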; conditions: S. cerevisiae sgs1 mgt1 strain, at 50.0 µM, stronger effect = higher value
The panel holds about 79,000 compounds, 15% with a hit somewhere; the sample as a whole holds those more often. Active and inactive are the calls of the source. Cut-off read from the data, not from the text of the source: active = growth inhibition above about 70%; inactive = the rest.
Quick list: growth inhibition per entry.

Query: Which growth inhibition reading was recorded for the compound "O=C(O)/C=C/c1ccc([N+](=O)[O-])o1" ?
Reply: 90% (active)

---

growth inhibition listing for selected compounds.
assay: NCI Yeast Anticancer Drug Screen. Data for the mec2-1 strain (AID 157); settings: S. cerevisiae mec2-1 strain, at 50.0 µM, stronger effect = higher value
This is part of a sample that, as a whole, favours compounds with a hit. Of some 79,000 tested, about 15% had one in any assay.
Express the result in % but write the number alone.

Query: Request the reported growth inhibition associated with CCCCCCCCC(C)c1ccccc1O (stereo unspecified)
Reply: 99.7

Query: What value of measured growth inhibition is listed for "COC(=O)c1[nH]c(=O)c(C#N)c(C(=O)OC)c1C(=O)c1ccc(Cl)c(Cl)c1" ?
Reply: 73

Query: Record request: growth inhibition value, item "S=c1[nH]c2ccc(Cl)cc2s1"
Reply: 65.8

---

experiment: NCI Yeast Anticancer Drug Screen. Data for the sgs1 mgt1 strain (AID 161);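 note: 0% = growth of cultures given vehicle only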; conditions: S. cerevisiae sgs1 mgt1 strain, at 50.0 µM (retest, dose inferred, filed as 5.0), stronger effect = higher value
This is part of a sample that, as a whole, favours compounds with a hit. Of some 79,000 tested, about 15% had one in any assay.
Recorded growth inhibition for the following molecules
Write the number in % without appending the unit.

Example entries and their recorded answers appear below.
{"structure.as.smiles": "O=C(/C=C/c1ccccc1)C1(c2ccccc2)CC1", "growth inhibition [%]": -2}
{"structure.as.smiles": "CCOCCC(=O)NNc1ccccc1", "growth inhibition [%]": 41}
{"structure.as.smiles": "CNc1ccc2c(c1)c1ccccc1n2C", "growth inhibition [%]": 21}
{"structure.as.smiles": "CCOC(=O)c1c(C)[nH]c(CO)c1C", "growth inhibition [%]": 24}

Query: Which growth inhibition value belongs to "COC(=O)c1ccc(/C=C/C2=CC(=O)C=CC2=O)cc1" ?
Reply: 57

Query: Need growth inhibition of "CCC(=O)OCC(=O)c1ccc(-c2ccccc2)cc1" , thanks.
Reply: 18

Query: So what does the record say about growth inhibition for "Cc1ccc(I)c(C(C)(C)O)c1" ?
Reply: 77

---

assay: NCI Yeast Anticancer Drug Screen. Data for the cln2 rad14 strain (AID 165);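 note: 0% = growth equal to vehicle treated cultures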; conditions: S. cerevisiae cln2 rad14 strain, at 5.0 µM (retest, dose inferred, filed as 0.5), stronger effect = higher value
The panel holds about 79,000 compounds, 15% with a hit somewhere; the sample as a whole holds those more often.
Reported growth inhibition values are given for each entry in this list.
API: value field is a number in %; no unit string.

{"structure.as.smiles": "CN(C)N=Nc1ccc(Cl)c2ncccc12", "observation.type": "growth inhibition", "reported": -2}
{"structure.as.smiles": "Cn1cc(NC(=O)c2cc(NC(=O)CCCCCCCCCCC(=O)Nc3cc(C(=O)Nc4cc(C(=O)NCCC(=N)N)n(C)c4)n(C)c3)cn2C)cc1C(=O)NCCC(=N)N", "observation.type": "growth inhibition", "reported": 72}
{"structure.as.smiles": "NS(=O)(=O)c1ccc(NC(=S)/N=C\\C(C(=O)c2ccccc2)=C(\\O)c2ccccc2)cc1", "observation.type": "growth inhibition", "reported": -19}
{"structure.as.smiles": "CC(C)OC(=O)c1ccc(NCc2cc(O)ccc2O)cc1Cl", "observation.type": "growth inhibition", "reported": 63}

Next compound, please.
Query: For the compound shown here, "COc1ccc(/C=N/Nc2ccccc2)cc1" , give the reported growth inhibition.
Reply: -9

---

assay: NCI Yeast Anticancer Drug Screen. Data for the mec2-1 strain (AID 157); details: S. cerevisiae mec2-1 strain, at 50.0 µM (retest, dose inferred, filed as 5.0), stronger effect = higher value
Compounds without any hit were thinned out: in the full panel of roughly 79,000, 15% have a hit.
Parameter growth inhibition: see the listing below.
Just the number in %, nothing appended.

Known results for compounds:
{"compound": "COc1ccc(C2C3=C(CCC(CN(C)C)C3=O)OC3=C2C(=O)C(CN(C)C)CC3)cc1 (stereo not given)", "observation.type": "growth inhibition", "reported": -1}
{"compound": "Cc1nc(N2N=C(c3ccc(Cl)cc3)CCC2=O)sc1[N+](=O)[O-]", "observation.type": "growth inhibition", "reported": 65}
{"compound": "CCOC1=C(NC(C)=O)C(=O)c2ccccc2C1=O", "observation.type": "growth inhibition", "reported": 97}

Query: I'd like to know its growth inhibition. The compound in question is "O=[N+]([O-])c1cc2cccnc2c2ncccc12"
Reply: -18

Query: Which growth inhibition value is on record for Cc1ccc(C)c(NC(=O)CC2SC(=Nc3ccccc3Cl)NC2=O)c1 (stereo not given) ?
Reply: 60

Query: Look up growth inhibition: "NS(=O)(=O)c1ccc(NC(=S)/N=C\C(C(=O)c2ccccc2)=C(\O)c2ccccc2)cc1"
Reply: -15

Query: Look at this compound and give its reported growth inhibition. O=C(O)C1CC2C3(Cl)C(Cl)=C(Cl)C(Cl)C2(CC1c1c2ccc(=O)c(O)c-2oc2c(O)c(O)ccc12)C3(Cl)Cl (stereo not given)
Reply: 97

Query: Reported growth inhibition, compound O=C1OC(c2ccccc2)CC1Cc1ccccc1 (stereo not given) : ____
Reply: 3

Query: Item under review: "O=C(/C=C/C(=O)OCCCl)OCCCl" . Reported growth inhibition?
Reply: 85

Query: Please report the recorded growth inhibition for CC1=CC2C(O)(CC(CO)=CC3C4C(C)(C)C4(OC(=O)c4ccccc4)C(OC(=O)c4ccccc4)C(C)C32O)C1=O (stereo not given) .
Reply: 98
